biological target: Voltage-gated potassium channel subunit beta-2 (Rattus norvegicus) (UniProt P62483); experiment: KvBeta positive modulators, primary screen, biochemical, NADPH fluorescence (AID 623); conditions: Recombinant KvBeta, NADPH fluorescence decrease slope, 10 min; at 10 µM; hits give low values;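 note: fluorescence intensity change per second fitted from 20 to 320 s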
Sequence (P62483 whole entry, looked up): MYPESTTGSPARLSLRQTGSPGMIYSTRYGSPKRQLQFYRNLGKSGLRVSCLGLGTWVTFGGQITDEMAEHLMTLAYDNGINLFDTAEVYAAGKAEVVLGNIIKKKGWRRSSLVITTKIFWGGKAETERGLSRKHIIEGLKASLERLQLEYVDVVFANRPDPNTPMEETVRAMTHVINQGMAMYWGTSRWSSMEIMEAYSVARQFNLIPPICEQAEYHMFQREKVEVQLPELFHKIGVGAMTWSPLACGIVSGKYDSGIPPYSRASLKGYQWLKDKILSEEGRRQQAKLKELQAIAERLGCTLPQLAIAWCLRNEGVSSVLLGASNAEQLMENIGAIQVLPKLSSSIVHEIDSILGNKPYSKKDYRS
Property Measured: NADPH fluorescence slope
Give bare numbers.

O=c1[nH]cnc2c1cnn2Cc1ccccc1 :: -5.1e-05
COc1ccc2nc3oc(C(=O)N4CCCCC4)cc3cc2c1 :: -2.5e-05
COc1ccc(-c2cc3n(n2)CCc2nc4ccccc4n2-3)cc1 :: -1.6e-05
COC(=O)C(NC(C)=O)(Nc1ccc(Br)cn1)C(F)(F)F (centres undefined) :: 3.7e-06
CN(Cc1ccccc1)C(=O)CNC(=O)Cn1cnc2ccccc2c1=O :: -2.5e-06
O=C(OCCN(CCOC(=O)c1ccncc1)S(=O)(=O)c1cccs1)c1ccncc1 :: 1e-05
Cc1cccc(NC(=O)c2cc(NC(=O)c3ccco3)ccc2Cl)n1 :: 1.5e-06
COc1ccc2c(c1)C(=O)N(c1ccccc1OC)C(=O)C2 :: -3.7e-05

For each entry beneath this line, provide reported NADPH fluorescence slope.
1. COc1ccc(-n2ncc3c(NCCCn4ccnc4)ncnc32)cc1
2. COc1ccc(C2C(C#N)=C(C)NC3=C2C(=O)c2ccccc23)cc1 (centres undefined)
3. O=C(NCc1cccnc1)C1CCCN(S(=O)(=O)c2ccc(Cl)cc2)C1 (centres undefined)
4. CCOC(=O)CC(=O)CSc1nnc2sc3ccccc3n12
5. CCOc1ccccc1C(=O)NC(C)c1ccc2c(c1)OCO2 (centres undefined)
6. O=C(C1CCCN(S(=O)(=O)c2ccc(Br)s2)C1)N1CCCCCC1 (centres undefined)

Response line:
-5.9e-06
-4.8e-05
-4.7e-05
-3e-05
-5.4e-05
-4.5e-05

----------
experiment: inhibitors of mutant huntingtin aggregation, primary screen, imaging, exon1htt(103Q)mCFP cells, high-content imaging (AID 483); conditions: exon1htt(103Q)mCFP cell line, aggregate imaging, at 2 µM; hits give high values;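 note: compound exposure lasted 3 days before fixation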
Mark class 0 for inhibition of aggregation values under 10%, and class 1 for everything at or above.

See these solved cases before continuing.
CC1(C)CC(=O)C(C(=O)CCCCC(=O)C2C(=O)CC(C)(C)CC2=O)C(=O)C1 :: class 1
c1ccc(Cn2nnnc2CN2CCN(c3ncccn3)CC2)cc1 :: class 0
Cc1nn(-c2ccccc2)c(C)c1/C=N/O :: class 0
Cc1ccc2nc(NC(=O)C3CCCN(S(=O)(=O)c4cnc[nH]4)C3)sc2c1 (stereo not drawn) :: class 0

Prompt line: Kindly determine if inhibition of aggregation recorded for COC(=O)CSc1cc(C)nc(NC(C)=O)n1 is above or exactly 10%.
Response line: class 0

Prompt line: Kindly determine if inhibition of aggregation recorded for COc1ccc2nc3oc(C(=O)N4CCCCC4)cc3cc2c1 is above or exactly 10%.
Response line: class 0

----------
molecular target: Voltage-gated potassium channel subunit beta-2 (Rattus norvegicus); test: KvBeta positive modulators, primary screen, biochemical, NADPH fluorescence (AID 623); settings: Recombinant KvBeta, NADPH fluorescence decrease slope, 10 min; at 10 µM; hits give low values;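 note: fluorescence intensity change per second fitted from 20 to 320 s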
Please go through the items and note down their NADPH fluorescence slope.
Numbers only.

# count of solved cases: 10
OC1(C2(O)CC(c3ccccc3)ON2)CCCCC1 (configuration not stated) :: -3.6e-05
CC1(C)Cc2c(sc3nc(SCC(=O)NCc4ccco4)n(-c4ccccc4)c(=O)c23)CS1 :: -4.8e-05
COc1ccc(S(=O)(=O)Nc2ccccc2OC)cc1C :: 1.9e-05
COC(=O)C(NC(=O)c1ccco1)(Nc1nc(C)cs1)C(F)(F)F (configuration not stated) :: -9.6e-05
Cc1nc(NCCCO)c(C#N)c2c1COC(C)(C)C2 :: -9.1e-05
CN1/C(=C\C(=O)C(F)F)C(C)(C)c2ccccc21 :: 1.6e-05
CCOc1ccc(N2C(N)=NC(N)=NC2(C)C)cc1 :: 5.9e-05
CCSc1nnc(NC(=O)C(C)(C(F)(F)F)C(F)(F)F)s1 :: -6.3e-05
O=C(CCCNS(=O)(=O)c1ccccc1)NCc1ccco1 :: -1.4e-05
CCOC(=O)c1ccc(NC(=O)CSc2n[nH]c(-c3ccncc3)n2)cc1 :: -3.8e-05

For each entry beneath this line, provide reported NADPH fluorescence slope.
1. CNC(=O)CCn1nc(-c2ccccc2)c2ccccc2c1=O
2. N#Cc1nc(COc2ccccc2)oc1N1CCCC1

Response line:
-2.4e-05
-4.6e-05

----------
biological target: Voltage-gated potassium channel subunit beta-2 (Rattus norvegicus) (UniProt P62483); assay: KvBeta enzyme negative modulators, primary screen, biochemical, NADPH fluorescence (AID 622); details: recombinant KvBeta, 4-cyanobenzaldehyde reduction, at 10 µM, hits give high values;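 note: slope of raw intensity against log time taken from 70 to 1610 s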
Property Measured: fluorescence slope
Give bare numbers.

Cc1ccc(C2CC(c3cccs3)n3nc(N)nc3N2)cc1 (stereo unspecified) :: -0.429

For each entry beneath this line, provide reported fluorescence slope.
1. O=C(CN1C(=O)CCS(=O)(=O)c2ccccc21)Nc1cccc(F)c1
2. Cn1c(Cn2cnc(Cl)c2Cl)nc2ccccc21
3. O=C(NCC1CCCO1)c1ccccc1-c1nc(-c2ccc(Cl)cc2)no1 (stereo unspecified)
4. COc1ccccc1C(=O)Nc1cc(Cl)ccc1O
5. COc1ccc(CCNC(=O)CCN2C(=O)C3CC=CCC3C2=O)cc1OC (stereo unspecified)

Response line:
[-0.335, -0.454, -0.483, -0.431, -0.605]

----------
test: inhibitors of Sendai virus-induced IRF3 signaling, primary screen, TLR/RLR signaling modifier project, cell-based, Sendai virus stimulus, luciferase, 10K MLSCN set (AID 602276); settings: HEK293 RL24 IRF3 luciferase reporter, at 10 µM, hits give high values;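 note: firefly luciferase from ISG56 promoter only with Renilla not read in this screen; 0% = Sendai virus plus DMSO and 100% = medium plus DMSO without virus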
Please go through the items and note down their inhibition.
One number for each entry, in %.

CCc1nnc(NC(=O)NCN2C(=O)C3C4C=CC(C4)C3C2=O)s1 (stereo unspecified) :: 7.26
CCC(C)(C)n1nnnc1C(c1ccncc1)N1CCN(c2cccc(OC)c2)CC1 (stereo unspecified) :: 23.4
CCn1c(SCC(=O)c2ccc(F)cc2)nnc1-c1ccoc1C :: 6.99

For each entry beneath this line, provide reported inhibition.
1. COCCNC(=O)C(c1ccc(O)cc1)N(Cc1ccco1)C(=O)CCC(=O)Nc1nccs1 (stereo unspecified)
2. Cn1cccc1Cc1nnc(SCC(=O)Nc2ccc(F)cc2F)n1-c1ccc(F)cc1
3. C(=C\c1ccccc1)/CN1CCN(Cc2ccc3c(c2)OCCO3)CC1
4. O=C(c1ccccc1Oc1nnnn1-c1ccccc1)N1CCOCC1
5. C=CCn1c2ccccc2c2nnc(SCC(=O)NC(C(=O)OC)C(C)C)nc21 (stereo unspecified)
6. COc1ccc(C2CC(c3cccs3)n3nc(N)nc3N2)cc1 (stereo unspecified)

Response line:
[-12.6, 10.4, 14, 9.07, 14.6, -3.14]

For each entry beneath this line, provide reported inhibition.
1. CCOC(=O)c1ccc(S(=O)(=O)NC2CCCCCCC2)n1C
2. Cc1ccc2cc3cc(C(=O)NCCN4CCOCC4)oc3nc2c1

Response line:
17.3
7.18

----------
experiment: inhibitors of Sendai virus-induced IRF3 signaling, primary screen, TLR/RLR signaling modifier project, cell-based, Sendai virus stimulus, luciferase, 10K MLSCN set (AID 602276); details: HEK293 RL24 IRF3 luciferase reporter, at 10 µM, hits give high values;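 note: firefly luciferase from ISG56 promoter only with Renilla not read in this screen; 0% = Sendai virus plus DMSO and 100% = medium plus DMSO without virus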
Mark false for inhibition values under 10%, and true for everything at or above.

See these solved cases before continuing.
COc1ccccc1N1CCN(C(=O)c2c(-c3c(Cl)cccc3Cl)noc2C)CC1 :: true
CCc1cccc2c(=O)c(C(=O)N3CCCCCC3)c[nH]c12 :: false
COc1ccc(C(O)C(CN2CCOCC2)c2ccccc2)cc1F (stereo unspecified) :: true

Prompt line: Kindly determine if inhibition recorded for COc1ccc(C2C3=C(CCCC3=O)Nc3nc(SCc4ccccc4)nn32)cc1OC (stereo unspecified) is above or exactly 10%.
Response line: false

Prompt line: Kindly determine if inhibition recorded for CC1(C)NC(=O)N(CCOc2cccc(Cl)c2Cl)C1=O is above or exactly 10%.
Response line: true

Prompt line: Kindly determine if inhibition recorded for CCOC(=O)N1CCN(CC(O)COc2ccccc2C(C)CC)CC1 (stereo unspecified) is above or exactly 10%.
Response line: true

Prompt line: Kindly determine if inhibition recorded for Cc1ccc(-c2nc(=S)c3c(n2Cc2ccco2)CCCC3)cc1 is above or exactly 10%.
Response line: true

Prompt line: Kindly determine if inhibition recorded for CCC1CCCN1Cn1cnc2c([nH]c3ccc(OC)cc32)c1=O (stereo unspecified) is above or exactly 10%.
Response line: true

Prompt line: Kindly determine if inhibition recorded for CN1CCN(Cc2nc3c(c(=O)n(C)c(=O)n3C)n2Cc2ccccc2Cl)CC1 is above or exactly 10%.
Response line: false

Prompt line: Kindly determine if inhibition recorded for O=C(NC1CCCc2ccccc21)c1ccc(CNc2c(N3CCOCC3)c(=O)c2=O)cc1 (stereo unspecified) is above or exactly 10%.
Response line: true

Prompt line: Kindly determine if inhibition recorded for CC1=C(C(=O)Nc2ccccc2)C(c2ccccn2)n2nc(CCCO)nc2N1 (stereo unspecified) is above or exactly 10%.
Response line: false

Prompt line: Kindly determine if inhibition recorded for CCC1CCCCN1CCCNC(=O)CC1Oc2ccc(C)cc2NC1=O (stereo unspecified) is above or exactly 10%.
Response line: false
